assay-protocol: chemical genetic growth profiling, strain panel (AID 1159580);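 note: tested at 20 µM; growth read once vehicle control cultures reached saturation at 30 °C; 1 = growth at the plate median or of vehicle wells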
condition-info: S. cerevisiae deletion strains, growth OD, locus YNL020C, strain ARK1, hits give low values
Screen size: about 5,500 compounds; about 2,000 (36%) were called active. Inconclusive results (about 18%) are left out. The list shows a part of the results.
I'd appreciate it if you marked entries label 1 when normalized growth is lower than 0.9 and label 0 when it is not.

molecule: N/C(CSc1ccc(Cl)cc1)=N/OC(=O)c1ccc(C(F)(F)F)cc1
class-assignment: label 1
//
molecule: O=C(NCc1cccs1)c1csc(Cc2c(Cl)cccc2Cl)n1
class-assignment: label 0
//
molecule: Cc1ccc(C(O)(c2ccccc2)c2ccccc2)c2ccccc12
class-assignment: label 0

Q) Is it true that normalized growth reported for CC(O)(CNCc1ccc(Cl)cc1)CSc1ccccc1Cl (stereo unspecified) is less than 0.9?
A) label 0

Q) Param item: N#CCC(=O)c1cccc(CSc2ccccc2Cl)c1
A) label 1

Q) Param item: Cc1cc(C(=O)O/N=C(/N)CSc2ncccc2C(F)(F)F)no1
A) label 0

Q) Param item: Cc1ccc2c(c1)CCCN2CC(=O)N(c1ccccc1)C1CCCCC1
A) label 0

Q) Param item: CC(C)c1ccc(-c2cc(=O)c3ccccc3o2)cc1
A) label 1

* * *

assay-protocol: chemical genetic growth profiling, strain panel (AID 1159580)
condition-info: S. cerevisiae deletion strains, growth OD, locus YOR106W, strain vam3, hits give low values
About 2,000 (36%) of roughly 5,500 compounds were called active. Not shown: some 18% with an inconclusive outcome. The list shows a part of the results.
I'd appreciate it if you marked entries Y when normalized growth is lower than 1 and N when it is not.

Examples with answers:
compound: Nc1nnc(-c2cccc(Cl)c2Cl)c(N)n1
class-assignment: N
--
compound: O=c1oc2ccccc2c(O)c1Cc1c(O)c2ccccc2oc1=O
class-assignment: N
--
compound: CC(=O)Nc1cccc(O)c1
class-assignment: N
--
compound: C=CCc1ccccc1OCC(O)CNC(C)C (configuration not stated)
class-assignment: N

Shift focus to the following entry.
Q) Is it true that normalized growth reported for Nc1ccc(C(=O)Oc2ccccc2)c(O)c1 is less than 1?
A) Y

* * *

assay-protocol: chemical genetic growth profiling, strain panel (AID 1159580)
condition-info: S. cerevisiae deletion strains, growth OD, locus YCL069W, strain vba3
In all, about 5,500 compounds went through this assay and about 2,000 (36%) were called active. About 18% were inconclusive and are not listed. No stated cut-off is given here; in the data, active means normalized growth mostly below about 0.91 (no sharp cut-off); inconclusive means no clear call, values can overlap the other calls; inactive means mostly above about 0.92. The list shows a part of the results.
Field 'call' accepts yes (1) for active, no (0) for inactive

molecule: CC(C(=O)O)[C@H]1CCC2C3CC=C4C[C@@H](O)CC[C@]4(C)C3CC[C@@]21C (stereo not given in full)
class-assignment: no (0)

Shift focus to the following entry.
Q) I'd appreciate the recorded outcome for CCC(CCC(C)[C@H]1CCC2C3CC=C4C[C@@H](O)CC[C@]4(C)C3CC[C@@]21C)C(C)C (stereo not given in full) from this test.
A) no (0)

* * *

assay-protocol: chemical genetic growth profiling, strain panel (AID 1159580)
condition-info: S. cerevisiae deletion strains, growth OD, locus YMR263W, strain SAP30, hits give low values
About 2,000 (36%) of roughly 5,500 compounds were called active. About 18% were inconclusive and are not listed. This is one part of the list.
I'd appreciate it if you marked entries condition met when normalized growth is lower than 0.9 and condition not met when it is not.

compound: C=CCn1c(Sc2ncc([N+](=O)[O-])s2)n[nH]c1=O
class-assignment: condition not met
--
compound: N#Cc1ccc([N+](=O)[O-])s1
class-assignment: condition met
--
compound: O=c1c2ccccc2[se]n1-c1ccccc1
class-assignment: condition met
--
compound: CC1(C)O[C@@H]2CC3C4C[C@H](F)C5=CC(=O)C=CC5(C)C4C(O)CC3(C)[C@]2(C(=O)CO)O1 (stereo partly drawn)
class-assignment: condition not met
--
compound: COc1cccc(-c2cc(=O)c3cc(OC)ccc3o2)c1
class-assignment: condition not met

Q) Is it true that normalized growth reported for C[C@@H]1CC[C@@]2(OC1)OC1C(O)C3C4CC[C@H]5C[C@H](O[C@@H]6O[C@H](CO)[C@H](O[C@@H]7O[C@H](CO)[C@@H](O)[C@H](O[C@@H]8OC[C@@H](O)[C@H](O)[C@H]8O)[C@H]7O[C@@H]7O[C@H](CO)[C@H](O)[C@H](O[C@@H]8O[C@H](CO)[C@@H](O)[C@H](O)[C@H]8O)[C@H]7O)[C@H](O)[C@H]6O)[C@H](O)C[C@]5(C)C4CC[C@]3(C)C1[C@@H]2C (stereo partly drawn) is less than 0.9?
A) condition met

Q) Param item: CSc1ccc(C(=O)O)s1
A) condition not met

Q) Param item: C#CCOS(=O)OC1CCCCC1Oc1ccc(C(C)(C)C)cc1 (stereo not drawn)
A) condition not met

* * *

Listed next: entries and their corresponding normalized growth.
assay-protocol: chemical genetic growth profiling, strain panel (AID 1159580);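 note: tested at 20 µM; growth read once vehicle control cultures reached saturation at 30 °C; 1 = growth at the plate median or of vehicle wells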
condition-info: S. cerevisiae deletion strains, growth OD, locus YGL078C, strain dbp3, hits give low values
Hit rate of the full screen: of about 5,500 compounds, about 2,000 (36%) were called active. Inconclusive results (about 18%) are left out. The list shows a part of the results.
Form: value (number only, do not type unit).

Q) Give its normalized growth value. Item: O=c1c(-c2cc(O)c(O)c(O)c2)coc2cc(O)c(O)c(O)c12
A) 0.991

Q) Param item: CC(=O)CC(c1ccccc1)c1c(O)c2ccccc2oc1=O (stereo unspecified)
A) 1.01

Q) Param item: O=c1c(-c2ccc(O)cc2)coc2cc(O)cc(O)c12
A) 1.03

Q) Param item: CC(=O)O[C@@H]1CC2C(C)(C)[C@H](O)C[C@H](O)[C@]2(C)C2CC[C@@]3(C)[C@H](c4ccoc4)OC(=O)[C@H]4O[C@]43[C@@]21C (stereo partly specified)
A) 1

Q) Param item: Cn1c(=O)c2[nH]c(C3CCCC3)nc2n(C)c1=O
A) 1

Q) Param item: CC1(C)O[C@@H]2CC3C4CCC5=CC(=O)C=C[C@]5(C)[C@@]4(F)[C@@H](O)C[C@]3(C)[C@]2(C(=O)CO)O1 (stereo partly specified)
A) 1

Q) Param item: CC(=O)OC1CC2C(C)(C)CCCC2(C)C2CCC3(C)C(c4ccoc4)OC(=O)C4OC43C12C (stereo unspecified)
A) 1.01

Q) Param item: Cc1cc2cc3c(C)cc(=O)oc3c(C)c2o1
A) 0.982

Q) Param item: CC(=O)Nc1ccc(OC(=O)c2ccccc2O)cc1
A) 0.97

Q) Param item: Nc1ccc(C(=O)Oc2ccccc2)c(O)c1
A) 0.893

Q) Param item: ClC(Cl)=C(c1ccc(Cl)cc1)c1ccc(Cl)cc1
A) 0.951

Q) Param item: CC(=O)O[C@H]1C[C@@]2(C)[C@H](c3ccoc3)OC(=O)[C@H]3O[C@]32[C@@]2(C)C1[C@]1(C)C(C[C@H]2OC(C)=O)C(C)(C)[C@H](OC(C)=O)C[C@@H]1OC(C)=O (stereo partly specified)
A) 0.972

Q) Param item: C=CCc1ccccc1OCC(O)CNC(C)C (stereo unspecified)
A) 1.01

* * *

Listed next: entries and their corresponding normalized growth.
assay-protocol: chemical genetic growth profiling, strain panel (AID 1159580);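 note: tested at 20 µM; growth read once vehicle control cultures reached saturation at 30 °C; 1 = growth at the plate median or of vehicle wells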
condition-info: S. cerevisiae deletion strains, growth OD, locus YOL147C, strain pex11, hits give low values
About 2,000 (36%) of roughly 5,500 compounds were called active. Another 18% or so got no clear call; they are omitted. Some of the results follow.
Form: value (number only, do not type unit).

molecule: CN(N=O)C(=O)N[C@@H]1[C@@H](O)[C@H](O)[C@@H](CO)O[C@@H]1O
measured-attribute: normalized growth
observed-measurement: 1.01

molecule: CC(=O)Oc1cc(-c2coc3cc(OC(C)=O)c(OC(C)=O)c(OC(C)=O)c3c2=O)cc(OC(C)=O)c1OC(C)=O
measured-attribute: normalized growth
observed-measurement: 0.694

molecule: COc1ccc(-c2coc3cc(O)cc(O)c3c2=O)cc1
measured-attribute: normalized growth
observed-measurement: 0.362

molecule: CC(C)=CCc1c2c(c(O)c3c(=O)c(O)c(-c4ccccc4)oc13)C=CC(C)(C)O2
measured-attribute: normalized growth
observed-measurement: 0.873

molecule: COc1ccc(-c2cc(=O)c3cc(OC)ccc3o2)cc1
measured-attribute: normalized growth
observed-measurement: 0.997

In the following, a different molecule is considered.
Q) Give its normalized growth value. Item: COc1cc([C@@H]2c3cc4c(cc3[C@H](OC(C)=O)[C@H]3COC(=O)[C@H]23)OCO4)cc(OC)c1OC
A) 0.981

* * *

assay-protocol: chemical genetic growth profiling, strain panel (AID 1159580);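 note: tested at 20 µM; growth read once vehicle control cultures reached saturation at 30 °C; 1 = growth at the plate median or of vehicle wells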
condition-info: S. cerevisiae deletion strains, growth OD, locus YCL011C, strain gbp2, hits give low values
About 2,000 (36%) of roughly 5,500 compounds were called active. About 18% were inconclusive and are not listed. Some of the results follow.
I'd appreciate it if you marked entries 1 when normalized growth is lower than 1 and 0 when it is not.

Examples with answers:
compound: CC(=O)Nc1cccc(O)c1
class-assignment: 0

compound: COC(=O)C1=C(C)NC(C)=C(C(=O)OCC(C)C)C1c1ccccc1[N+](=O)[O-] (stereo not drawn)
class-assignment: 1

compound: Nc1ccc(C(=O)Oc2ccccc2)c(O)c1
class-assignment: 1

Q) Is it true that normalized growth reported for FC(F)(F)C(Cl)Br (stereo not drawn) is less than 1?
A) 0

Q) Param item: O=c1c2ccccc2[se]n1-c1ccccc1
A) 1

Q) Param item: Cc1cc2cc3c(C)cc(=O)oc3c(C)c2o1
A) 1
